Ref: paper PMC5565192

Kindly supply the reported EC50 values for the records listed here.
Tested on: G. lamblia WB trophozoites
TEST_DESCRIPTION: Parasite assay, CellTiter-Glo EC50 dose response, G. lamblia trophozoites
Format: cell-based, Giardia lamblia
REPORTED_CONDITIONS: Giardia duodenalis; trophozoites, 48 h, minimum n = 3; read-out: G. lamblia EC50
Answer with a number only, understood to be in µM.

# EC50 (compound: COc1cc(C[C@@H](C)[C@@H](C)Cc2ccc(O)c(O)c2)ccc1O [Compound 2, 3’-O-methylnordihydroguairetic acid] ) is 38

get_value(item= C[C@H]1[C@H](c2ccc(O)cc2)c2cc(O)c(O)cc2C[C@H]1C [Compound 3, Nor-3’-demethoxyisoguaiacin] , readout=EC50) returns 49

EC50 reported for this compound COc1cc([C@@H]2c3cc(O)c(O)cc3C[C@@H](C)[C@H]2C)ccc1O [Compound 4, Nor-isoguaicin] : 74

What the record says about Cc1ncc([N+](=O)[O-])n1CCO [Metronidazole, reference compound] : EC50 is 6.4

* * *

Test system: E. histolytica HM1: IMSS trophozoites
TEST_DESCRIPTION: Parasite assay, CellTiter-Glo EC50 dose response, E. histolytica trophozoites
Assay type: cell-based, Entamoeba histolytica
REPORTED_CONDITIONS: Entamoeba histolytica; trophozoites, 48 h, minimum n = 3; read-out: E. histolytica EC50
Please respond with reported EC50 for every item in the list.
Respond with the figure and its unit, in that order.

Sample C[C@H]1[C@H](c2ccc(O)cc2)c2cc(O)c(O)cc2C[C@H]1C , system: E. histolytica HM1: IMSS trophozoites. Its EC50 is 94 µM

Query C[C@H](Cc1ccc(O)c(O)c1)[C@@H](C)Cc1ccc(O)c(O)c1 [Compound 1, nordihydroguairetic acid] on E. histolytica HM1: IMSS trophozoites; EC50 returned: 103 µM

Assay E. histolytica HM1: IMSS trophozoites, sample COc1cc([C@@H]2c3cc(O)c(O)cc3C[C@@H](C)[C@H]2C)ccc1O , EC50 read: 83 µM
